# Target Entity: muscarinic acetylcholine receptors
# Assay Name: inhibition of specific binding of 3H-Oxotremorine-M (3H-Oxo) to rat cortex
# Stated Conditions: 3H-Oxotremorine 1.0 nM, 30 min, 25° C., pH 7.4
Label label 1 when IC50 is strictly below 300 nM; at or above that, label label 0.

# Molecule, Class Assignment
data = [
    ("CCCCCOc1nsnc1C1CC2CCC1NC2 (stereo not shown) [Compound 30]", "label 1"),
    ("CC(C)CCCSc1nsnc1C1CC2CCC1NC2 (stereo not shown) [Compound 18]", "label 1"),
    ("CCCCCCSc1nsnc1C1CC2CCC1NC2 (stereo not shown) [Compound 28]", "label 1"),
    ("CCCCCCOc1nsnc1C1CC2CCC1N(C)C2 (single isomer, unassigned) [Compound 7]", "label 1"),
    ("CCCCCOc1nsnc1C1CC2CCC1NC2 (stereo not shown) [Compound 31]", "label 1"),
    ("FC(F)(F)c1ccc(COc2nsnc2C2CC3CCC2NC3)cc1 (stereo not shown) [Compound 32]", "label 0"),
    ("CCCCCCOc1nsnc1C1CC2CCC1N(C)C2 (single isomer, unassigned) [Compound 8]", "label 1"),
    ("CCCCCCSc1nsnc1C1CC2CCC1NC2 (stereo not shown) [Compound 27]", "label 1"),
    ("CC(C)CCCSc1nsnc1C1CC2CCC1NC2 (stereo not shown) [Compound 17]", "label 0"),
    ("FC(F)(F)c1ccc(CSc2nsnc2C2CC3CCC2NC3)cc1 (stereo not shown)", "label 0"),
]

###

# Target Entity: muscarinic acetylcholine receptors
# Assay Name: inhibition of specific binding of 3H-Oxotremorine-M (3H-Oxo) to rat cortex
# Stated Conditions: 3H-Oxotremorine 1.0 nM, 30 min, 25° C., pH 7.4
# Protocol: The pharmacological properties of the compounds of the invention can be illustrated by determining their capability to inhibit the specific binding of ^3 H-Oxotremorine-M (^3 H-Oxo). Birdsdall N. J. M., Hulme E. C., and Burgen A. S. V. (1980). […] ^3 H-oxo labels muscarinic receptor in the CNS (with a preference for agonist domains of the receptors). […] Using the present experimental conditions only the high and medium affinity sites are determined. […]
Catalogue of compounds with associated IC50

# Compound, IC50 / nM
data = [
    ("FC(F)(F)c1ccc(COc2nsnc2C2CC3CCC2NC3)cc1 (stereo not shown) [Compound 33]", 208),
    ("N#Cc1ccc(CSc2nsnc2C2CC3CCC2NC3)s1 (stereo not shown) [Compound 25]", 5.4),
    ("N#Cc1ccc(CSc2nsnc2C2CC3CCC2NC3)s1 (stereo not shown) [Compound 26]", 31),
    ("FC(F)(F)CCCSc1nsnc1C1CC2CCC1NC2 (stereo not shown) [Compound 20]", 4.8),
]
